# Test system: PC-3 prostate
# EXPERIMENT DESCRIPTION: NCI tumour cell line growth inhibition, 48 h

{"MOLECULE": "CCN(CC)c1ccc(/C=C/C(=O)c2cc(C(C)(C)C)c(O)c(C(C)(C)C)c2)cc1", "UNIT STRING": "µM", "LIMIT SIGN": ">", "TGI": 100}
{"MOLECULE": "C[N+](C)(C)CC(=O)N/N=C(\\C(=O)NC1=C(Cl)C(=O)c2ccccc2C1=O)C(C#N)c1nc(-c2ccc([N+](=O)[O-])cc2)cs1 (stereo not given)", "UNIT STRING": "µM", "LIMIT SIGN": "=", "TGI": 56.8}
{"MOLECULE": "NS(=O)(=O)CC1CC[CH-]CC1.[Cl-].[Cl-].[Cl-].[Cl-].[Cl-].[Sb+5].c1ccncc1", "UNIT STRING": "µM", "LIMIT SIGN": ">", "TGI": 100}
{"MOLECULE": "CSC1=NNC(SC)=NN1", "UNIT STRING": "µM", "LIMIT SIGN": "=", "TGI": 0.303}
{"MOLECULE": "CCOC(=O)c1c(C)n([O-])c2cc(Cl)c(Cl)cc2[n+]1=O", "UNIT STRING": "µM", "LIMIT SIGN": ">", "TGI": 100}

* * *

# System: CAKI-1 renal
# EXPERIMENT DESCRIPTION: NCI tumour cell line growth inhibition, 48 h
Below is a list of entries, each paired with its recorded TGI value.

{"MOLECULE": "NS(=O)(=O)CC1CC[CH-]CC1.[Cl-].[Cl-].[Cl-].[Cl-].[Cl-].[Sb+5].c1ccncc1", "TGI": "> 100 µM"}
{"MOLECULE": "CN(C)c1ccc(C2CC(c3ccc4ccccc4c3O)=NN2c2ccc([N+](=O)[O-])cc2[N+](=O)[O-])cc1 (stereo unspecified)", "TGI": "> 100 µM"}
{"MOLECULE": "O=C1C2CCN(CC2)C1(CO)CO", "TGI": "40 µM"}
{"MOLECULE": "CCN(CC)c1ccc2nc3ccc(N=Nc4c(O)ccc5ccccc45)cc3[n+](-c3ccccc3)c2c1", "TGI": "> 100 µM"}
{"MOLECULE": "ONC1=Nc2ccccc2C(=S)N2CSCC12 (stereo unspecified)", "TGI": "> 100 µM"}
{"MOLECULE": "CN(C)CCNC(=O)Cn1cnc2cccc([N+](=O)[O-])c2c1=O", "TGI": "> 100 µM"}
{"MOLECULE": "CCn1c(-c2nonc2N)nc2c(C#CC(C)(C)O)ncc(OC[C@H]3CCCNC3)c21", "TGI": "> 100 µM"}
{"MOLECULE": "C#Cc1cc(Br)c(OC(=O)C(C)(C)C)c(-c2cc(C#C)cc(Br)c2OC(=O)C(C)(C)C)c1", "TGI": "> 100 µM"}
{"MOLECULE": "CC1=C(C(=O)Nc2cc(Cl)c3[nH]ncc3c2)C(c2ccc(C(F)(F)F)cc2)CC(=O)N1 (stereo unspecified)", "TGI": "> 25 µM"}
{"MOLECULE": "CN1CCN(c2ccc(NC(=O)c3cncnc3Nc3ccc(OCc4ccccn4)c(Cl)c3)cc2)CC1", "TGI": "11.7 µM"}
{"MOLECULE": "C/C(=N\\NC(=S)SCc1ccccc1)c1ccccn1", "TGI": "4.93 µM"}
{"MOLECULE": "CN(CC(=O)Nc1nc2ccccc2[nH]1)S(=O)(=O)c1ccc(Cl)cc1", "TGI": "> 100 µM"}
{"MOLECULE": "COc1cc(C(=O)CC2OC(=O)C(Cl)=C2Cl)ccc1Cl (stereo unspecified)", "TGI": "> 100 µM"}
{"MOLECULE": "COc1cc(C2=N/C(=C/c3cccs3)C(=O)O2)cc(OC)c1OC", "TGI": "> 100 µM"}
{"MOLECULE": "CN=C(N)c1ccc(N=C(N)c2ccc(C(N)=Nc3ccc(C(N)=NC)cc3)cc2)cc1", "TGI": "> 100 µM"}
{"MOLECULE": "N#Cc1c(N)nc(N2CCOCC2)c(C#N)c1-c1ccccn1", "TGI": "> 100 µM"}
{"MOLECULE": "O=C(O)[C@H](Cc1ccccc1)NCCN1CCC[C@H]1C(=O)O", "TGI": "> 100 µM"}
{"MOLECULE": "CCOC(=O)c1cnc2c(ccc3ncccc32)c1NCCCN(CC)CC", "TGI": "> 100 µM"}
{"MOLECULE": "O=C(CCc1ccccc1)n1cccc1CO", "TGI": "> 100 µM"}
{"MOLECULE": "OCc1cc2ccncc2c2c1[nH]c1ccccc12", "TGI": "17.9 µM"}
{"MOLECULE": "O=C(/C=C/C12c3ccccc3C(c3ccccc31)C1C(=O)NC(=O)C12)c1ccc(F)cc1 (stereo unspecified)", "TGI": "4.37 µM"}

* * *

# Test system: OVCAR-4 ovarian
# EXPERIMENT DESCRIPTION: NCI tumour cell line growth inhibition, 48 h
PROPERTY NAME: GI50

{"COMPOUND": "CC(=O)[CH-]C(=O)c1ccccc1.CC(=O)[CH-]C(=O)c1ccccc1.Cc1cc([O-])ccc1Cl.Cc1cc([O-])ccc1Cl.[Ti+4]", "PROPERTY NAME": "GI50", "VALUE MEASURED": "40.8 µM"}
{"COMPOUND": "CCn1c(-c2nonc2N)nc2c(C#CC(C)(C)O)ncc(OC[C@H]3CCCNC3)c21", "PROPERTY NAME": "GI50", "VALUE MEASURED": "31.4 µM"}
{"COMPOUND": "Oc1c(Cl)cc(Cl)cc1C(c1cc(Cl)cc(Cl)c1O)C(Cl)(Cl)Cl", "PROPERTY NAME": "GI50", "VALUE MEASURED": "3.21 µM"}
{"COMPOUND": "Cc1ccc(C(=O)/C(=C\\c2ccc([N+](=O)[O-])cc2)S(=O)Cc2ccc(Cl)cc2)cc1 (stereo not drawn)", "PROPERTY NAME": "GI50", "VALUE MEASURED": "1.85 µM"}
{"COMPOUND": "Fc1cccc(-n2ccc(-c3ccccc3)nc2=S)c1", "PROPERTY NAME": "GI50", "VALUE MEASURED": "98.6 µM"}
{"COMPOUND": "OCCNc1nc(Nc2ccc(Cl)c(Cl)c2)nc2ccccc12", "PROPERTY NAME": "GI50", "VALUE MEASURED": "4.64 µM"}
{"COMPOUND": "C/C(O)=C(\\C#N)C(=O)Nc1ccc(C(F)(F)F)cc1", "PROPERTY NAME": "GI50", "VALUE MEASURED": "91 µM"}
{"COMPOUND": "CC1=C(C(=O)Nc2cc(Cl)c3[nH]ncc3c2)C(c2ccc(C(F)(F)F)cc2)CC(=O)N1 (stereo not drawn)", "PROPERTY NAME": "GI50", "VALUE MEASURED": "> 25 µM"}

* * *

Item-by-item account of GI50
# Tested on: TK-10 renal
# EXPERIMENT DESCRIPTION: NCI tumour cell line growth inhibition, 48 h

{"COMPOUND": "CO/N=C(\\COc1ccc2oc(-c3ccccc3)cc(=O)c2c1)c1ccc(OC)cc1", "GI50": "41.4 µM"}
{"COMPOUND": "CC([C@H]1CCC2C3CCC4C[C@@H](N)CC[C@]4(C)C3CC[C@@]21C)N(C)C (some centres undefined)", "GI50": "12 µM"}
{"COMPOUND": "CC1(C)NCCC[C@]2(C)[C@H]3CC[C@@H]4[C@H]5[C@H](C(=O)/C=C/c6ccccn6)CC[C@]5(CO)CC[C@@]4(C)[C@]3(C)CC[C@@H]12", "GI50": "4.8 µM"}
{"COMPOUND": "COc1ccc2c(c1)C(=O)/C(=C/c1ccc([N+](=O)[O-])o1)O2", "GI50": "1.05 µM"}

* * *

# Test system: MCF7 breast
# EXPERIMENT DESCRIPTION: NCI tumour cell line growth inhibition, 48 h

{"COMPOUND": "COc1ccc(NC(C)=O)c(C(O)CCNC(C)=O)c1 (stereo not given)", "LIMIT SIGN": ">", "TGI / µM": 100}
{"COMPOUND": "C/C(=N\\NC(=S)SCc1ccccc1)c1ccccn1", "LIMIT SIGN": "<", "TGI / µM": 0.01}
{"COMPOUND": "CN1CCN(c2ccc(NC(=O)c3cncnc3Nc3ccc(OCc4ccccn4)c(Cl)c3)cc2)CC1", "LIMIT SIGN": "=", "TGI / µM": 8.53}
{"COMPOUND": "CCN(CC)Cc1ccc(C(=S)Nc2ccc(C)cc2)s1", "LIMIT SIGN": "=", "TGI / µM": 25.1}
{"COMPOUND": "CCN(CC)c1ccc(/C=C/C(=O)c2cc(C(C)(C)C)c(O)c(C(C)(C)C)c2)cc1", "LIMIT SIGN": ">", "TGI / µM": 100}
{"COMPOUND": "Cc1nc2[nH]ncn2c(=O)c1CCCl", "LIMIT SIGN": ">", "TGI / µM": 10}
{"COMPOUND": "CSC(=S)OC1CC(n2cnc3c(NC(=O)c4ccccc4)ncnc32)OC1CO[Si](C)(C)C(C)(C)C (stereo not given)", "LIMIT SIGN": "=", "TGI / µM": 40.3}
{"COMPOUND": "O=C(CCc1ccccc1)n1cccc1CO", "LIMIT SIGN": ">", "TGI / µM": 100}
{"COMPOUND": "CCOC(OCC)N1C(=O)C2(C(OCC)OCC)CC3C(OC(=O)N3N)c3cccc1c32 (stereo not given)", "LIMIT SIGN": ">", "TGI / µM": 100}
{"COMPOUND": "O=C(Nc1cccc(-c2ccc(Cl)c(C(F)(F)F)c2)c1)C1CCN(Cc2cccc3cccnc23)CC1", "LIMIT SIGN": "=", "TGI / µM": 2.95}
